# assay_procedure: Plasma pharmacokinetics of amdizalisib (LC-MS/MS) after a single oral dose of [14C]amdizalisib suspension
# Format: in vivo, human
# condition_context: male, human, plasma, po, 30 mg; read-out: MRT0-t
measurement_kind: MRT last (h)

INSERT INTO assay_data (compound, measurement_kind, result) VALUES
  ('C[C@H](Nc1ncnc(N)c1C#N)c1cc2ncc(Cl)n2nc1-c1ccccc1 [Amdizalisib]', 'MRT last', 9.65);

====

# assay_procedure: Metabolite profiling and identification in plasma, urine and feces (LC/RAM/MS)
# Type: in vivo, human
measurement_kind: U: %Dose in urine (Figure 4)

INSERT INTO assay_data (record_smiles, result) VALUES
  ('C[C@H](Nc1nc(O)nc(N)c1C#N)c1cc2ncc(Cl)n2nc1-c1ccccc1', '8.08%'),
  ('C[C@H](Nc1ncnc(N)c1C(N)=O)c1cc2ncc(Cl)n2nc1-c1ccccc1', '+'),
  ('C[C@H](Nc1ncnc(N)c1C#N)c1cc2ncc(Cl)n2nc1-c1ccccc1', '+'),
  ('CC(=O)c1cc2ncc(Cl)n2nc1-c1ccccc1', '+');

====

Reported %Dose in pooled feces values are given for each entry in this list.
# assay_procedure: Metabolite profiling and identification in plasma, urine and feces (LC/RAM/MS)
# Assay type: in vivo, human
# condition_context: subject 01003
# Procedure: The plasma samples from six subjects were pooled individually according to the AUC method to obtain 6 plasma samples of 0–72 h ([Hop et al., 1998]). […] The radioactivity in the organic solvent extract and the reconstitution solution was determined by LSC. The solid residue after extraction was dissolved by heating with 1N KOH solution and added to the scintillation solution to determine its radioactivity. All the final data were used to examine the recovery of radioactivity during plasma extraction. […]
measurement_kind: %Dose in pooled feces (%Dose)

INSERT INTO results (compound, result) VALUES
  ('C[C@H](Nc1ncnc(N)c1C(N)=O)c1cc2ncc(Cl)n2nc1-c1ccccc1 [M408]', 2.11),
  ('C[C@H](Nc1nc(O)nc(N)c1C#N)c1cc2ncc(Cl)n2nc1-c1ccccc1 [M406-2]', 10.17),
  ('C[C@H](Nc1ncnc(N)c1C#N)c1cc2ncc(Cl)n2nc1-c1ccccc1 [Amdizalisib]', 1.93),
  ('C[C@H](Nc1ncnc(N)c1C#N)c1cc2ncc(Cl)n2nc1-c1ccc(O)cc1 [M406-1]', 5.65);

====

# assay_procedure: Metabolite profiling and identification in plasma, urine and feces (LC/RAM/MS)
# Type: in vivo, human
# condition_context: subject 01001
measurement_kind: %Dose in pooled feces (%Dose)

INSERT INTO assay_data (compound, result) VALUES
  ('C[C@H](Nc1ncnc(N)c1C(N)=O)c1cc2ncc(Cl)n2nc1-c1ccccc1 [M408]', 0.40),
  ('C[C@H](Nc1ncnc(N)c1C#N)c1cc2ncc(Cl)n2nc1-c1ccccc1 [Amdizalisib]', 0.77),
  ('C[C@H](Nc1ncnc(N)c1C#N)c1cc2ncc(Cl)n2nc1-c1ccc(O)cc1 [M406-1]', 4.78),
  ('C[C@H](Nc1nc(O)nc(N)c1C#N)c1cc2ncc(Cl)n2nc1-c1ccccc1 [M406-2]', 9.93);

====

# assay_procedure: Plasma pharmacokinetics of amdizalisib (LC-MS/MS) after a single oral dose of [14C]amdizalisib suspension
# Type: in vivo, human
# condition_context: male, human, plasma, po, 30 mg
measurement_kind: half-life (h)

INSERT INTO results (compound, measurement_kind, unit_tag, result) VALUES
  ('C[C@H](Nc1ncnc(N)c1C#N)c1cc2ncc(Cl)n2nc1-c1ccccc1 [Amdizalisib]', 'half-life', 'h', 8.34);

====

# assay_procedure: Metabolite profiling and identification in plasma, urine and feces (LC/RAM/MS)
# Assay type: in vivo, human
# condition_context: pooled 0–168 h feces, mean of 6 subjects; total in feces 62.08%
measurement_kind: Feces %Dose (%Dose)

INSERT INTO results (compound, measurement_kind, result) VALUES
  ('C[C@H](Nc1ncnc(N)c1C(N)=O)c1cc2ncc(Cl)n2nc1-c1ccccc1 [M408]', 'Feces %Dose', 1.04),
  ('C[C@H](Nc1ncnc(N)c1C#N)c1cc2ncc(Cl)n2nc1-c1ccccc1 [Amdizalisib]', 'Feces %Dose', 1.21),
  ('C[C@H](Nc1nc(O)nc(N)c1C#N)c1cc2ncc(Cl)n2nc1-c1ccccc1 [M406-2]', 'Feces %Dose', 11.30),
  ('C[C@H](Nc1ncnc(N)c1C#N)c1cc2ncc(Cl)n2nc1-c1ccc(O)cc1 [M406-1]', 'Feces %Dose', 5.06);

====

# assay_procedure: Plasma pharmacokinetics of amdizalisib (LC-MS/MS) after a single oral dose of [14C]amdizalisib suspension
# Type: in vivo, human
# condition_context: male, human, plasma, po, 30 mg; read-out: Vz/F
measurement_kind: Vd/F (L)

INSERT INTO measurements (record_smiles, result) VALUES
  ('C[C@H](Nc1ncnc(N)c1C#N)c1cc2ncc(Cl)n2nc1-c1ccccc1', 192);

====

Reported %Dose in pooled feces values are given for each entry in this list.
# assay_procedure: Metabolite profiling and identification in plasma, urine and feces (LC/RAM/MS)
# Assay type: in vivo, human
# condition_context: subject 01006
measurement_kind: %Dose in pooled feces (%Dose)

INSERT INTO results (compound, measurement_kind, result) VALUES
  ('C[C@H](Nc1ncnc(N)c1C#N)c1cc2ncc(Cl)n2nc1-c1ccc(O)cc1 [M406-1]', '%Dose in pooled feces', 4.54),
  ('C[C@H](Nc1ncnc(N)c1C(N)=O)c1cc2ncc(Cl)n2nc1-c1ccccc1 [M408]', '%Dose in pooled feces', 0.60),
  ('C[C@H](Nc1ncnc(N)c1C#N)c1cc2ncc(Cl)n2nc1-c1ccccc1 [Amdizalisib]', '%Dose in pooled feces', 0.48),
  ('C[C@H](Nc1nc(O)nc(N)c1C#N)c1cc2ncc(Cl)n2nc1-c1ccccc1 [M406-2]', '%Dose in pooled feces', 14.33);

====

# assay_procedure: Metabolite profiling and identification in plasma, urine and feces (LC/RAM/MS)
# Format: in vivo, human
# condition_context: subject 01004
measurement_kind: %Dose in pooled feces (%Dose)

INSERT INTO results (record_smiles, result) VALUES
  ('C[C@H](Nc1ncnc(N)c1C#N)c1cc2ncc(Cl)n2nc1-c1ccccc1', 1.52),
  ('C[C@H](Nc1nc(O)nc(N)c1C#N)c1cc2ncc(Cl)n2nc1-c1ccccc1', 5.32),
  ('C[C@H](Nc1ncnc(N)c1C#N)c1cc2ncc(Cl)n2nc1-c1ccc(O)cc1', 6.15),
  ('C[C@H](Nc1ncnc(N)c1C(N)=O)c1cc2ncc(Cl)n2nc1-c1ccccc1', 0.69);

====

# assay_procedure: Metabolite profiling and identification in plasma, urine and feces (LC/RAM/MS)
# Type: in vivo, human
# condition_context: subject 01002
measurement_kind: %Dose in pooled feces (%Dose)

INSERT INTO assay_data (record_smiles, unit_tag, result) VALUES
  ('C[C@H](Nc1ncnc(N)c1C#N)c1cc2ncc(Cl)n2nc1-c1ccc(O)cc1', '%Dose', 5.18),
  ('C[C@H](Nc1nc(O)nc(N)c1C#N)c1cc2ncc(Cl)n2nc1-c1ccccc1', '%Dose', 13.05),
  ('C[C@H](Nc1ncnc(N)c1C#N)c1cc2ncc(Cl)n2nc1-c1ccccc1', '%Dose', 0.25),
  ('C[C@H](Nc1ncnc(N)c1C(N)=O)c1cc2ncc(Cl)n2nc1-c1ccccc1', '%Dose', 0.91);

====

# assay_procedure: Metabolite profiling and identification in plasma, urine and feces (LC/RAM/MS)
# Format: in vivo, human
# condition_context: subject 01005
measurement_kind: %Dose in pooled feces

INSERT INTO assay_data (compound, result) VALUES
  ('C[C@H](Nc1ncnc(N)c1C(N)=O)c1cc2ncc(Cl)n2nc1-c1ccccc1 [M408]', '1.53 %Dose'),
  ('C[C@H](Nc1ncnc(N)c1C#N)c1cc2ncc(Cl)n2nc1-c1ccc(O)cc1 [M406-1]', '4.03 %Dose'),
  ('C[C@H](Nc1nc(O)nc(N)c1C#N)c1cc2ncc(Cl)n2nc1-c1ccccc1 [M406-2]', '14.97 %Dose'),
  ('C[C@H](Nc1ncnc(N)c1C#N)c1cc2ncc(Cl)n2nc1-c1ccccc1 [Amdizalisib]', '2.32 %Dose');

====

# assay_procedure: Plasma pharmacokinetics of amdizalisib (LC-MS/MS) after a single oral dose of [14C]amdizalisib suspension
# Assay type: in vivo, human
# condition_context: male, human, plasma, po, 30 mg
measurement_kind: AUC(0-inf) (ng·h/mL)

INSERT INTO measurements (record_smiles, measurement_kind, result) VALUES
  ('C[C@H](Nc1ncnc(N)c1C#N)c1cc2ncc(Cl)n2nc1-c1ccccc1', 'AUC(0-inf)', 1880);

====

# assay_procedure: Metabolite profiling and identification in plasma, urine and feces (LC/RAM/MS)
# Assay type: in vivo, human
measurement_kind: F: %Dose in feces (Figure 4)

INSERT INTO measurements (compound, measurement_kind, result) VALUES
  ('C[C@H](Nc1ncnc(N)c1C(N)=O)c1cc2ncc(Cl)n2nc1-c1ccccc1 [M408]', 'F: %Dose in feces (Figure 4)', '1.04%'),
  ('C[C@H](Nc1ncnc(N)c1C#N)c1cc2ncc(Cl)n2nc1-c1ccccc1 [Amdizalisib]', 'F: %Dose in feces (Figure 4)', '1.21%'),
  ('CC(=O)c1cc2ncc(Cl)n2nc1-c1ccccc1 [M271]', 'F: %Dose in feces (Figure 4)', '+'),
  ('C[C@H](Nc1ncnc(N)c1C#N)c1cc2ncc(Cl)n2nc1-c1ccc(O)cc1 [M406-1]', 'F: %Dose in feces (Figure 4)', '5.06%'),
  ('C[C@H](Nc1nc(O)nc(N)c1C#N)c1cc2ncc(Cl)n2nc1-c1ccccc1 [M406-2]', 'F: %Dose in feces (Figure 4)', '11.30%');

The origin of these recorded values is paper PMC11605291.
